- Tested on: Staphylococcus aureus (SAUR 9213)
Would you kindly list log10 of MIC for each of these molecules?
Scale: decimal log of MIC, MIC in µg/mL.

According to the records, this molecule Cc1nnc(-c2ccc(N3C[C@H](C#N)OC3=O)cc2F)s1 [Example 4] displays log10 of MIC of 0.60

According to the records, this molecule N#C[C@H]1CN(c2ccc(-c3ccncc3)c(F)c2)C(=O)O1 [Example 5] displays log10 of MIC of -0.30

According to the records, this molecule N#C[C@H]1CN(c2cc(F)c(N3CCS(=O)(=O)CC3)c(F)c2)C(=O)O1 [Example 3] displays log10 of MIC of 0.30

According to the records, this molecule N#C[C@H]1CN(c2ccc(N3CCOCC3)c(F)c2)C(=O)O1 [Example 2] displays log10 of MIC of 0.90

According to the records, this molecule N#C[C@H]1CN(c2ccc(C3CCS(=O)(=O)CC3)c(F)c2)C(=O)O1 [Example 1] displays log10 of MIC of 0.00
